Tested on: OVCAR-8 ovarian
Assay: NCI-60 one-dose screen, 48 h (100 = growth as untreated, 0 = no growth, -100 = all killed)
Details: 10 µM unless noted
The panel holds about 83,000 compounds, 20% with a hit somewhere; the sample as a whole holds those more often. Activity calls are given as the source filed them. How the source made its calls: active means growth percent below 10; inactive means the rest.
parameter: growth

[[record]]
compound = "O=C(/C=C/c1ccc(Cl)cc1)c1ccc(Nc2ccnc3cc(Cl)ccc23)cc1"
tgt = "OVCAR-8 ovarian"
data_value = "85.2% (inactive)"

[[record]]
compound = "Oc1ccc(C2OCCO2)c2cccnc12"
tgt = "OVCAR-8 ovarian"
data_value = "24.6% (inactive)"

[[record]]
compound = "Cc1ccc(-c2nc(C#N)c(S(=O)(=O)n3nc(C)cc3N)o2)cc1"
tgt = "OVCAR-8 ovarian"
data_value = "87.2% (inactive)"

[[record]]
compound = "COc1cccc(C2C(C#N)=C(N)Oc3c2ccc2ccccc32)c1 (stereo not given)"
tgt = "OVCAR-8 ovarian"
data_value = "21.4% (inactive)"

[[record]]
compound = "N/C(=N\\c1nc2ccccc2s1)NC(=O)Nc1ccccc1"
tgt = "OVCAR-8 ovarian"
data_value = "41% (inactive)"

[[record]]
compound = "CC1=C2[C@@H](CC1)[C@]1(C)O[C@@](C(C)C)(C[C@H]1OC(=O)CO)[C@H]2OC(=O)CCCc1ccccc1"
tgt = "OVCAR-8 ovarian"
data_value = "35.4% (inactive)"

[[record]]
compound = "CN(C)C(=S)NN=C(c1ccccn1)c1ccccn1"
tgt = "OVCAR-8 ovarian"
data_value = "33.1% (inactive)"

[[record]]
compound = "N#C/C(=N\\Nc1ccccc1)C(=O)Nc1cc(-c2ccccc2)nn1-c1ccccc1"
tgt = "OVCAR-8 ovarian"
data_value = "40.6% (inactive)"

[[record]]
compound = "C=CC(=O)Nc1ccc2ncnc(Nc3cccc(NS(=O)(=O)CCC)c3Cl)c2c1"
tgt = "OVCAR-8 ovarian"
data_value = "48.2% (inactive)"

[[record]]
compound = "CCN(CC)c1ccc(/C=N/NC(=O)c2ccccc2Nc2ccnc(C(F)(F)F)c2)c(O)c1"
tgt = "OVCAR-8 ovarian"
data_value = "35.1% (inactive)"

[[record]]
compound = "CC1(C)CC[C@]2(CO)CC[C@]3(C)[C@H](CC[C@@H]4[C@@]5(C)CC[C@H](O)C(C)(C)[C@@H]5CC[C@]43C)[C@H]2[C@H]1O"
tgt = "OVCAR-8 ovarian"
data_value = "64.5% (inactive)"

[[record]]
compound = "COc1cc2c(cc1OC)CC[N+](CCC[N+](C)(C)C)=C2"
tgt = "OVCAR-8 ovarian"
data_value = "110% (inactive)"

[[record]]
compound = "CC(=O)CC(=O)c1ccccc1.[Cu+2]"
tgt = "OVCAR-8 ovarian"
data_value = "110% (inactive)"

[[record]]
compound = "C(=N\\Nc1nnc2n1N=C(c1ccccc1)CS2)/c1ccc(OCc2ccccc2)cc1"
tgt = "OVCAR-8 ovarian"
data_value = "102% (inactive)"

[[record]]
compound = "COc1ccc(Nc2nc(Nc3cc(C)[nH]n3)c3cc(OC)c(OC)cc3n2)cc1"
tgt = "OVCAR-8 ovarian"
data_value = "-31.2% [20 µM] (active)"

[[record]]
compound = "COc1cc(/C=N/NC(=O)c2ccc3nc(-c4ccc(Cl)cc4)[nH]c3c2)cc(OC)c1OC"
tgt = "OVCAR-8 ovarian"
data_value = "60.5% (inactive)"

[[record]]
compound = "O=C(CN1C(=O)NC2NC(=O)NC21)N/N=C/c1cccc([N+](=O)[O-])c1 (stereo not given)"
tgt = "OVCAR-8 ovarian"
data_value = "111% (inactive)"

[[record]]
compound = "COc1ccc2c(c1)C(c1c[nH]c3ccccc13)(c1c[nH]c3ccccc13)CCO2"
tgt = "OVCAR-8 ovarian"
data_value = "61.2% (inactive)"

[[record]]
compound = "CCCCCCC/C=N/NC(=O)c1ccc(-n2cc(-c3ccccc3)nn2)cc1"
tgt = "OVCAR-8 ovarian"
data_value = "95.6% (inactive)"

[[record]]
compound = "O=C(Cn1cc(CSc2nc3ccccc3o2)nn1)Nc1ccc([N+](=O)[O-])cc1"
tgt = "OVCAR-8 ovarian"
data_value = "107% (inactive)"


Reference source: PubChem BioAssay (NCI)
